- TARGET ENTITY: BRG-1 (Homo sapiens, UniProt P51532)
- Construct: made in house; host or cells: High Five insect cells
- Sequence (P51532 whole entry): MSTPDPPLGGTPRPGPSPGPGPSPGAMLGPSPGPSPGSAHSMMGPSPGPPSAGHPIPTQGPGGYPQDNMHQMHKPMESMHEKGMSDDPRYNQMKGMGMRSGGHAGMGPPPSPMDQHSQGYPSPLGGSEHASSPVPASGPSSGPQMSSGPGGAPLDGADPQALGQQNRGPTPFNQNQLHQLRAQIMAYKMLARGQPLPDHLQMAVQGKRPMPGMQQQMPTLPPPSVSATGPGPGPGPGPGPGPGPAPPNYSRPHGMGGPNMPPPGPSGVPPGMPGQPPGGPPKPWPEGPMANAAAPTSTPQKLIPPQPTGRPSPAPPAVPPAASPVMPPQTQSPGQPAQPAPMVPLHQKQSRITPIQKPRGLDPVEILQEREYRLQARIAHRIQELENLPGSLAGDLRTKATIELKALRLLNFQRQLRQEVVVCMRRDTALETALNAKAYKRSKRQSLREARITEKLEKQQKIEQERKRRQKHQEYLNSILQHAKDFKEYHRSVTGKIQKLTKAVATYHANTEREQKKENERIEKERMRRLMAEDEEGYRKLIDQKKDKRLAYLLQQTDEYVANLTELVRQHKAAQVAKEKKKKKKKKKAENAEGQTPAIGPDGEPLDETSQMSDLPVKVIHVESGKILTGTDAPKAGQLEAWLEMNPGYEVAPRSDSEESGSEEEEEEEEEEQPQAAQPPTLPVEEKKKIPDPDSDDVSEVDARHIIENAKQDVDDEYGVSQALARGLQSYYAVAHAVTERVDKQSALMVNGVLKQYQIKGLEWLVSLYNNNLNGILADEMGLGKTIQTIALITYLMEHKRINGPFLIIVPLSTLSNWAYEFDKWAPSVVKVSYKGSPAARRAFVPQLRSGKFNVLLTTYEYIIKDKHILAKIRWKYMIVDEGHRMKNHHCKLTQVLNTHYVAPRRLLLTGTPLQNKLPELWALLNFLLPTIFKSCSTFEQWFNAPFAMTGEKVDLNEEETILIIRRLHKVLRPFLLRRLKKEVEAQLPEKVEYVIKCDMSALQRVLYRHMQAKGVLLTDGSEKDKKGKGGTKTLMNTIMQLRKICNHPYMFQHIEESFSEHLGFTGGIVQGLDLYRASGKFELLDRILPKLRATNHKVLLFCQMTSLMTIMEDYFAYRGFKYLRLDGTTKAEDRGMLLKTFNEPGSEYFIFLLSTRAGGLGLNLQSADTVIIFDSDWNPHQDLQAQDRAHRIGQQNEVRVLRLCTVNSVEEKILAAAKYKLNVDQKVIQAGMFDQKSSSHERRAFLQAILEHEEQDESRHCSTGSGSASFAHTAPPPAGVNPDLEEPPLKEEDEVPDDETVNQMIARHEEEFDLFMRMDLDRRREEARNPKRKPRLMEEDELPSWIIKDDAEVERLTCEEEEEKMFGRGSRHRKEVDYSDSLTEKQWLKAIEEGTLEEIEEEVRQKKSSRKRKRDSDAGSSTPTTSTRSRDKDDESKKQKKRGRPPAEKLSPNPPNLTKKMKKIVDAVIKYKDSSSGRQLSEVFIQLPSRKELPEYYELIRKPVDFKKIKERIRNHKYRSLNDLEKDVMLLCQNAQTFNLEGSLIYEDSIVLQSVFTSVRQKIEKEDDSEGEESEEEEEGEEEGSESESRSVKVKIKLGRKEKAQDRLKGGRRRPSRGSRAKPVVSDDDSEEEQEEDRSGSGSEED
- EXPERIMENT: ATPase catalytic activity of BRG-1, ADP-Glo in vitro biochemical assay
- CONDITION DETAILS: ATPase catalytic activity, ADP-Glo; 30 nM BRG-1, 400 μM ATP; read-out: BRG1 IC50
Measured IC50 accompanies every entry in the list below.
MEASURED PROPERTY: IC50 (µM)

>>> print(df.to_string())
                                   compound                         target_entity  recorded_result
0  O=C(NCc1cc2nc(N3CCOc4cc(Cl)cnc43)ccc2cn1)c1cc(F)c2c(c1)S(=O)(=O)CCOC2 [Compound 691]  BRG-1 (Homo sapiens, UniProt P51532)            0.159
1  COC[C@@H]1COc2c(-c3ccc4cnc(CNC(=O)c5ccc6c(c5)S(=O)(=O)CCOC6)cc4n3)cccc2N1C [Compound 639]  BRG-1 (Homo sapiens, UniProt P51532)             0.78
2  O=C(NCc1cc2nc(N3CCCc4ccc(C(F)(F)F)nc43)ccc2cn1)c1ccc2c(c1)S(=O)(=O)CCOC2 [Compound 570]  BRG-1 (Homo sapiens, UniProt P51532)            0.557
3  O=C(NCc1cc2nc(N3CCCc4ccc(Cl)nc43)ccc2cn1)c1ccc2c(c1)S(=O)(=O)CCOC2 [Compound 513]  BRG-1 (Homo sapiens, UniProt P51532)            0.164
